src = ChEMBL document CHEMBL3988442

Tested on: Mycobacterium tuberculosis
Protocol summary: Cornell M. t heat shock assay; note: in the data most compounds retested in dose-response had high values
Type: functional, organism-based
Set-up: dose or concentration left out as unconfirmed
In all, about 69,000 compounds went through this assay and about 950 (1.4%) showed an effect of 50% or more. Many of the other results were omitted from the sample, so strong results are more common in it than they were.
Measured quantity: Percent Effect (%)
Reply with just the number (in %).

Consider the reported Percent Effect for these compounds:
CN(C)C(=O)C1(C)CN(Cc2cn(C)c3ccccc23)CCO1 (centres undefined) = 54.51
Oc1ccc([C@H]2Oc3cc(O)cc(O)c3C[C@@H]2O)cc1 = -4.634
CCN1CCc2nc(N3CCOCC3)nc(NC(C)C)c2C1 = 8.22
Cc1nnc(N2CCOC(C)(C(=O)N(C)C)C2)c2ccccc12 (centres undefined) = 0.5691
Cc1ncsc1CN1CCOC(C)(C(=O)N(C)C)C1 (centres undefined) = -16.31

Can you look up the measured Percent Effect of Cc1ccccc1C(=O)N1CCC2(CCCN2CCN(C)C)CC1.O=C(O)C(F)(F)F.O=C(O)C(F)(F)F for me?
12.9

Value lookup for Percent Effect; key = CCc1n[nH]c(C2CN(Cc3ncc(CC)o3)CCO2)n1 (centres undefined)
-30.6

Query: Percent Effect; subject: CS(=O)(=O)NC[C@@H]1OC[C@H]2CN(Cc3ccsc3)CC[C@H]21.O=C(O)C(F)(F)F
-25.96

What measured Percent Effect goes with O=C1CN(Cc2nnc(-c3ccc(Br)cc3)o2)CCN1 ?
1.317

# query: Percent Effect of entry Cc1ccc2nc(C3CCCN3Cc3csc(C)n3)[nH]c2c1 (centres undefined)
87.71
